These data points were gathered from the supplement of paper PMC4862054.

Below: a set of entries, each annotated with reported normalised response.
Tested on: DU-4475
Experiment: normalised response (% of control), CellTiter-Glo; higher = more viable cells (100 = DMSO, 0 = benzethonium chloride kill control)
Details: incubation time: 72 h
Kindly answer with a numeric value in %, unit omitted.

Worked set:
| Molecule | normalised response [%] |
| --- | --- |
| COc1cc2c(N3CCN(C(=O)Nc4ccc(OC(C)C)cc4)CC3)ncnc2cc1OCCCN1CCCCC1 [Tandutinib] (10 nM) | 97.1 |
| CN1CCc2c(c3ccccc3n2Cc2ccc(C(=O)NO)cc2)C1 [Tubastatin A] (100 nM) | 102 |

Request: What value of normalised response has been reported for the following molecule? Nc1nc(Cl)nc2c1ncn2[C@@H]1O[C@H](CO)[C@@H](O)[C@@H]1F [Clofarabine] (100 nM)
Response: 99.4

----------
Tested on: SK-BR-3
Experiment: drug sensitivity score (DSS), CellTiter-Glo (DSS (AUC-based score)); higher = stronger drug effect (viability inhibition or cytotoxicity); extreme values may be limits of the assay
Conditions: incubation time: 72 h
Reported drug sensitivity score values for a set of compounds
Give the figure by itself; no unit, no explanation.

| Compound | Assay Target | drug sensitivity score |
| --- | --- | --- |
| CCCc1cc(C)[nH]c(=O)c1CNC(=O)c1cc(-c2ccnc(N3CCN(C)CC3)c2)cc2c1cnn2C(C)C | SK-BR-3 | 6.24 |
| C[C@@H]1C[C@H]2[C@@H]3CCC4=CC(=O)C=C[C@]4(C)[C@@]3(F)[C@@H](O)C[C@]2(C)[C@@]1(O)C(=O)CO | SK-BR-3 | 0 |
| O=NN(CCCl)C(=O)NC1CCCCC1 | SK-BR-3 | 0 |

// next entry
Request: // query drug sensitivity score value for entry `Cn1cc(C[C@@H](N)C(=O)O)c2ccccc21`
Response: 0

----------
System: MCF-10A
Experiment: drug sensitivity score (DSS), CellTiter-Glo (DSS (AUC-based score)); higher = stronger drug effect (viability inhibition or cytotoxicity); extreme values may be limits of the assay
Details: incubation time: 72 h
drug sensitivity score listing for selected compounds.
Answer with a number only.

Example entries begin here.
| Smiles Representation | Assay Target | Quantitative Readout |
| --- | --- | --- |
| O=C(O)CC[C@H]1CC[C@@](c2cc(F)ccc2F)(S(=O)(=O)c2ccc(Cl)cc2)CC1 | MCF-10A | 0 |
| COc1cc2c(cc1-c1c(C)noc1C)ncc1[nH]c(=O)n([C@H](C)c3ccccn3)c12 | MCF-10A | 5.37 |
| CC(C)NC[C@@H](C(=O)N1CCN(c2ncnc3c2[C@H](C)C[C@H]3O)CC1)c1ccc(Cl)cc1 | MCF-10A | 3.41 |

Request: Which measured drug sensitivity score value corresponds to `CC(C)n1nc(-c2ccc3oc(N)nc3c2)c2c(N)ncnc21` ?
Response: 12

Request: Entry under review: `Cc1cc2c(F)c(Oc3ncnn4cc(OC[C@@H](C)O)c(C)c34)ccc2[nH]1` . Reported drug sensitivity score?
Response: 0

Request: drug sensitivity score for `CC(C)C[C@H](NC(=O)[C@H](CCc1ccccc1)NC(=O)CN1CCOCC1)C(=O)N[C@@H](Cc1ccccc1)C(=O)N[C@@H](CC(C)C)C(=O)[C@@]1(C)CO1` ?
Response: 12.2

----------
In this section we review reported normalised response values for a set of compounds.
Test system: CAL-120
Experiment: normalised response (% of control), CellTiter-Glo; higher = more viable cells (100 = DMSO, 0 = benzethonium chloride kill control)
Conditions: incubation time: 72 h
State the value, then name its unit.

| Compound | Result |
| --- | --- |
| Cc1c(C(=O)Nc2ccc(N3C[C@@H](C)O[C@@H](C)C3)nc2)cccc1-c1ccc(OC(F)(F)F)cc1 [Erismodegib] (1 nM) | 99.2% |
| O=C(O)CC[C@H]1CC[C@@](c2cc(F)ccc2F)(S(=O)(=O)c2ccc(Cl)cc2)CC1 [MK-0752] (1 nM) | 102% |
| CC(C)NC[C@@H](C(=O)N1CCN(c2ncnc3c2[C@H](C)C[C@H]3O)CC1)c1ccc(Cl)cc1 [GDC-0068] (10 nM) | 99.8% |
| CN1CCN(c2nc(C3=C(c4c[nH]c5ccccc45)C(=O)NC3=O)c3ccccc3n2)CC1 [Sotrastaurin] (10 nM) | 91.3% |
| NC(=O)NO [Hydroxyurea] (10000 nM) | 95.7% |

Next:
Request: GET /values?readout=normalised response&item= CC[C@H](CC#N)OC(=O)N[C@@H](C)c1cccc(NC(=O)Nc2ccc(-c3cnco3)c(OC)c2)c1 [AVN944] (1000 nM)
Response: 59.9%

----------
Test system: MDA-MB-453
Assay: normalised response (% of control), CellTiter-Glo; higher = more viable cells (100 = DMSO, 0 = benzethonium chloride kill control)
Conditions: incubation time: 72 h
Measurement Label: normalised response (%)
Only the number, expressed in %, is required.

| Compound | Assay Target | normalised response [%] |
| --- | --- | --- |
| CCc1cnn2c(NCc3ccc[n+]([O-])c3)cc(N3CCCC[C@H]3CCO)nc12 [Dinaciclib] (1 nM) | MDA-MB-453 | 103 |
| O=C(c1cc(Cc2n[nH]c(=O)c3ccccc23)ccc1F)N1CCN(C(=O)C2CC2)CC1 [Olaparib] (1 nM) | MDA-MB-453 | 103 |

Request: Entry under review: CN1CCN(c2nc(C3=C(c4c[nH]c5ccccc45)C(=O)NC3=O)c3ccccc3n2)CC1 [Sotrastaurin] (1 nM) . Reported normalised response?
Response: 96.9

----------
System: MDA-MB-436
Experiment: normalised response (% of control), CellTiter-Glo; higher = more viable cells (100 = DMSO, 0 = benzethonium chloride kill control)
Details: incubation time: 72 h
Is normalised response at least 90%? Then yes (1). If not, no (0).

Look over these answered cases.
| Compound | Group Label |
| --- | --- |
| CC(C)n1nc(-c2ccc3oc(N)nc3c2)c2c(N)ncnc21 [INK128] (0.1 nM) | no (0) |
| CC[C@H](CC#N)OC(=O)N[C@@H](C)c1cccc(NC(=O)Nc2ccc(-c3cnco3)c(OC)c2)c1 [AVN944] (1000 nM) | no (0) |

Request: Hi, just wondering whether CC/C(=C(\c1ccccc1)c1ccc(OCCN(C)C)cc1)c1ccccc1 [Tamoxifen] (1000 nM) shows normalised response of 90% or higher.
Response: yes (1)

Request: Check this compound for normalised response at or above 90%: CO[C@H]1C[C@@H]2CC[C@@H](C)[C@@](O)(O2)C(=O)C(=O)N2CCCC[C@H]2C(=O)O[C@H]([C@H](C)C[C@@H]2CC[C@@H](O)[C@H](OC)C2)CC(=O)[C@H](C)/C=C(\C)[C@@H](O)[C@@H](OC)C(=O)[C@H](C)C[C@H](C)/C=C/C=C/C=C/1C [Sirolimus] (0.01 nM)
Response: yes (1)

Request: State whether the measured normalised response reaches 90%, counting equality as reaching it, for Cn1cc(C[C@@H](N)C(=O)O)c2ccccc21 [1-methyl-D-tryptophan] (5 nM)
Response: yes (1)

----------
Tested on: HCC1937
Experiment: normalised response (% of control), CellTox Green; higher = less cell death (100 = DMSO, 0 = benzethonium chloride kill control)
Conditions: incubation time: 72 h
Measurement Label: normalised response (%)
Your answer should be a plain number; it is taken to be in %.

// solved cases for normalised response follow
| Molecule | normalised response [%] |
| --- | --- |
| O=C(O)CC[C@H]1CC[C@@](c2cc(F)ccc2F)(S(=O)(=O)c2ccc(Cl)cc2)CC1 [MK-0752] (100 nM) | 96 |
| COc1cc2c(cc1-c1c(C)noc1C)ncc1[nH]c(=O)n([C@H](C)c3ccccn3)c12 [I-BET151] (10000 nM) | 66.3 |
| CO[C@H](C(=O)[C@@H](O)[C@@H](C)O)[C@@H]1Cc2cc3cc(O[C@H]4C[C@@H](O[C@@H]5C[C@@H](O)[C@H](O)[C@@H](C)O5)[C@H](O)[C@@H](C)O4)c(C)c(O)c3c(O)c2C(=O)[C@H]1O[C@H]1C[C@@H](O[C@@H]2C[C@@H](O)[C@@H](O[C@@H]3C[C@](C)(O)[C@H](O)[C@@H](C)O3)[C@@H](C)O2)[C@H](O)[C@@H](C)O1 [Plicamycin] (100 nM) | 119 |
| CO[C@H](C(=O)[C@@H](O)[C@@H](C)O)[C@@H]1Cc2cc3cc(O[C@H]4C[C@@H](O[C@@H]5C[C@@H](O)[C@H](O)[C@@H](C)O5)[C@H](O)[C@@H](C)O4)c(C)c(O)c3c(O)c2C(=O)[C@H]1O[C@H]1C[C@@H](O[C@@H]2C[C@@H](O)[C@@H](O[C@@H]3C[C@](C)(O)[C@H](O)[C@@H](C)O3)[C@@H](C)O2)[C@H](O)[C@@H](C)O1 [Plicamycin] (10000 nM) | 114 |
| O=NN(CCCl)C(=O)NC1CCCCC1 [Lomustine] (10000 nM) | 57.4 |

Below: the item to evaluate.
Request: May I ask what normalised response has been recorded for NC(=O)NO [Hydroxyurea] (1000 nM) ?
Response: 109
